meta.source: PubChem BioAssay AID651630

- Test system: TAG
- MEASUREMENT DESCRIPTION: TAG lipid buildup inhibition with viability readout – cell-based, panel, Nile Red and DAPI fluorescence, H9c2, dose response (AID 651630);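 also: cells exposed to compound overnight before fixation and staining; hits lower the Nile Red lipid signal and are scored as TAG inhibitors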
- ASSAY CONDITIONS: H9c2 cells, Nile Red TAG fluorescence, oleic acid, mean of runs
Active and inactive are the calls of the source.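 The calls were made as follows: active = lipid-stain IC50 at or below a set limit, with nuclear-stain toxicity IC50 at least five times higher; inactive = the rest.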
Respond only with the outcome that fits, drawn from 1 for active, -1 for inactive

CCC(=O)Nc1nonc1-c1nc2ccccc2n1Cc1cccc2ccccc12; -1
O=C(Nc1sc2c(c1-c1nc3ccccc3[nH]1)CCCC2)C1CCCC1; 1
O=C(Cc1n[nH]c(=O)c2ccccc12)OCC(=O)c1ccc2c(c1)OCCO2; -1
CC(C)C(C)(C#N)NC(=O)CSc1nc2scc(-c3ccco3)c2c(=O)n1-c1ccccc1 (stereo not given); 1
Cc1cc(NC(=O)c2cc(-c3ccncc3)nc3c(C)cccc23)no1; 1

What was the test verdict on COc1ccc(S(=O)(=O)N(C)C[C@@H]2OCCCC[C@H](C)Oc3ccc(NC(=O)Nc4ccc(C(F)(F)F)cc4)cc3C(=O)N([C@H](C)CO)C[C@H]2C)cc1 ?
-1

What was the test verdict on Nc1c(Cl)cc(-c2csc(N3CCCC3c3nc4cc(Cl)c(N5CCCCC5)cc4n3CCOCCO)n2)cc1Cl (stereo not given) ?
1
